The measurements presented in this section are drawn from PubChem BioAssay (NCI).

Can you tell me growth for the items I'm about to list?
system: NCI-H322M lung; experiment: NCI-60 one-dose screen, 48 h (100 = growth as untreated, 0 = no growth, -100 = all killed); settings: 10 µM unless noted
This is part of a sample that, as a whole, favours compounds with a hit. Of some 83,000 tested, about 20% had one in any assay. Activity calls are given as the source filed them. How the source made its calls: active means growth percent below 10; inactive means the rest.

Find the recorded growth belonging to `CC(=O)Nc1cc2c3c(cccc3c1)-c1ccccc1-2` and report it.
79.9% (inactive)

# repeat for `COc1cc(Cl)cc(-c2nn(-c3cccc(NC(=O)c4cc(C(F)(F)F)cc(C(F)(F)F)c4)c3)cc2-c2ccncc2)c1`
80.3% (inactive)

Next entry: `COc1ccc(NC(=O)c2ccccc2-c2ccccc2)c(C(N)=O)c1`
58.7% (inactive)

# repeat for `COc1cc(/C(Cl)=C/C=C/C(=O)c2c(C)[n+]([O-])c3ccc(Cl)cc3[n+]2[O-])cc(OC)c1OC`
96.3% (inactive)

Would you kindly repeat that for `C[C@H]1c2cccc(O)c2C(O)=C2C(=O)[C@]3(O)C(O)=C(C(N)=O)C(=O)[C@@H](N(C)C)[C@@H]3[C@@H](O)[C@@H]21` ?
44.2% (inactive)

What do we get for `CC(=O)Nc1c(Cl)cc2c(c1Cl)Cc1cc([N+](=O)[O-])ccc1-2` ?
94.9% (inactive)

Now consider `COC(=O)[C@H](Cc1cnc[nH]1)NC(=O)[C@@H](NC(=O)Nc1cc(C(F)(F)F)cc(C(F)(F)F)c1)C(C)C` .
-94.9% [100 µM] (active)
